system: Cryptococcus neoformans; conditions: Concentration 20 uM; ASSAY_TEST Inhibition of Fungal Growth; detection method Resazurin; Absorption (OD600-OD570); plate type 384well; NBS; CORNING #3640
Potency and affinity values are given separately.
Attribute: Inhibition
Enter your answer as a number in %; do not include the unit.

Example cases with answers are listed next.
Q: Give the reported Inhibition for O=C(CCCN1CC=C(n2c(=O)[nH]c3ccccc32)CC1)c1ccc(F)cc1 (system: Cryptococcus neoformans).
A: -8.67

Q: Also C[C@H]1O[C@@H](O[C@H]2[C@@H](O)C[C@H](O[C@H]3[C@@H](O)C[C@H](O[C@H]4CC[C@@]5(C)[C@H](CC[C@@H]6[C@@H]5C[C@@H](O)[C@]5(C)C(C7=CC(=O)OC7)CC[C@]65O)C4)O[C@@H]3C)O[C@@H]2C)C[C@H](O)[C@@H]1O (stereo partly specified) ?
A: -6

Q: Now consider CN(C/C=C/C#CC(C)(C)C)Cc1cccc2ccccc12.Cl [TERBINAFINE HYDROCHLORIDE] .
A: 35.41

***
Q: Recorded Inhibition for CC[C@H](C)C(=O)O[C@H]1CCC=C2C=C[C@H](C)[C@H](CC[C@@H]3C[C@@H](O)CC(=O)O3)[C@H]21 with Cryptococcus neoformans, please?
A: -2.39

Q: Queued: CCC1=C(C)CN(C(=O)NCCc2ccc(S(=O)(=O)NC(=O)N[C@H]3CC[C@H](C)CC3)cc2)C1=O [GLIMEPIRIDE]
A: -2.89

Q: Repeat with CC(C(=O)O)c1cccc(C(=O)c2ccccc2)c1 (stereo unspecified)
A: -5.87
